# Tested on: IKK-epsilon
# Construct: gene IKBKE
# condition summary: concentration: 1 μM, replicates: in singlicate; n = 1;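 also: KINOMEscan kinase panel screen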
%Inh strictly less than 3% = Criterion met. Otherwise Criterion not met.

[[record]]
item_smiles = "CCC(=O)c1c(-c2ccccc2)c2cc(Cl)ccc2c(=O)n1Cc1ccc(C(=O)O)cc1"
class_name = "Criterion met"

[[record]]
item_smiles = "COc1cc2ncn(-c3cc(OCc4ccc(S(C)(=O)=O)cc4)c(C(N)=O)s3)c2cc1OC"
class_name = "Criterion not met"

[[record]]
item_smiles = "CCC(=O)c1c(-c2ccccc2)c2cc(Cl)ccc2c(=O)n1Cc1cc(S(C)(=O)=O)n(CC(N)=O)n1"
class_name = "Criterion met"

[[record]]
item_smiles = "CCn1c(-c2ccoc2)nc2cnccc21"
class_name = "Criterion not met"

[[record]]
item_smiles = "FC(F)(F)c1ccc(-c2ncn(CCCN3CCOCC3)c2-c2ccncc2)cc1"
class_name = "Criterion not met"

[[record]]
item_smiles = "CCC(=O)c1c(-c2ccccc2)c2cc(Cl)ccc2c(=O)n1Cc1cc(S(C)(=O)=O)n(CC(F)F)n1"
class_name = "Criterion met"


----------
# Test system: SNRK
# condition summary: concentration: 1 μM, replicates: in singlicate; n = 1
observed property: %Inh (%)

[[record]]
item_smiles = "COc1cccc(C2=C(Nc3cccc(C(=O)O)c3)C(=O)NC2=O)c1"
test_result = 0

[[record]]
item_smiles = "CCC(=O)c1c(-c2ccccc2)c2cc(Cl)ccc2c(=O)n1Cc1cc(S(C)(=O)=O)n(CC(F)F)n1"
test_result = 0

[[record]]
item_smiles = "COC(=O)c1c(-c2ccccc2)c2cc(Br)ccc2c(=O)n1Cc1ccc(S(C)(=O)=O)cc1"
test_result = 11

[[record]]
item_smiles = "CCc1nc(-c2cccc(C)c2)c(-c2ccncc2)s1"
test_result = 9

[[record]]
item_smiles = "CCS(=O)(=O)c1ccc(OC)c(Nc2ncc(-c3ccc(F)cc3)o2)c1.Cl"
test_result = 0

[[record]]
item_smiles = "O=C(NCc1cccs1)c1cc(C(=O)c2c(Cl)cccc2Cl)c[nH]1"
test_result = 0

[[record]]
item_smiles = "COc1cc2ncn(-c3cc(OCc4ccncc4)c(C(N)=O)s3)c2cc1OC"
test_result = 0

[[record]]
item_smiles = "CN1C(=O)C(Nc2cc(Cl)c(O)c(Cl)c2)=C(c2ccc(Cl)cc2)C1=O"
test_result = 0

[[record]]
item_smiles = "CCC(=O)c1c(-c2ccccc2)c2cc(Cl)ccc2c(=O)n1Cc1ccc(C(=O)O)cc1"
test_result = 0


----------
Recorded %Inh for the following compounds
# Tested on: PCTK3
# Construct: gene CDK18
# condition summary: concentration: 1 μM, replicates: in singlicate; n = 1
observed property: %Inh (%)

[[record]]
compound = "CN1C(=O)C(Nc2cc(Cl)c(O)c(Cl)c2)=C(c2ccc(Cl)cc2)C1=O"
observed_property = "%Inh"
test_result = 0

[[record]]
compound = "COc1cccc(-n2cnc3c(N)ncnc32)c1"
observed_property = "%Inh"
test_result = 6

[[record]]
compound = "Nc1ncnc2c1ncn2-c1ccc(Cl)cc1"
observed_property = "%Inh"
test_result = 0

[[record]]
compound = "CC(C)(C)c1ccc(C(=O)Nc2cn3cc(-c4ccccc4)ccc3n2)cc1"
observed_property = "%Inh"
test_result = 0

[[record]]
compound = "O=C(Nc1n[nH]c2nc(-c3ccccc3)c(Cl)cc12)C1CC1"
observed_property = "%Inh"
test_result = 30

[[record]]
compound = "CCC(=O)c1c(-c2ccccc2)c2cc(Cl)ccc2c(=O)n1Cc1cc(C(=O)NC2CC2)n(C)n1"
observed_property = "%Inh"
test_result = 0

[[record]]
compound = "Cc1cccc(-c2nc(Nc3ccc4c(cnn4C)c3)c3ccccc3n2)n1"
observed_property = "%Inh"
test_result = 11

[[record]]
compound = "Cl.c1ccc(Cn2cnc3cc(Nc4ncnc5ccccc45)ccc32)cc1"
observed_property = "%Inh"
test_result = 29

[[record]]
compound = "COc1cc(Nc2ccnc3ccc(C(F)(F)F)cc23)cc(OC)c1OC"
observed_property = "%Inh"
test_result = 7

[[record]]
compound = "COc1cc2nccc(Nc3cccc(Oc4ccccc4)c3)c2cc1OC.Cl"
observed_property = "%Inh"
test_result = 2

[[record]]
compound = "Cc1cccc(-c2cc(-c3c[nH]nc3-c3ccccn3)ccn2)c1"
observed_property = "%Inh"
test_result = 1

[[record]]
compound = "CCS(=O)c1ccc(-c2coc3ccc(-c4nnc(C)o4)cc23)cc1 (centres unmarked)"
observed_property = "%Inh"
test_result = 2

[[record]]
compound = "COc1cc(OC)cc(-c2cc3cnc(N)nc3nc2NC(=O)NC(C)(C)C)c1"
observed_property = "%Inh"
test_result = 0

[[record]]
compound = "COc1cccc(C2=C(Nc3cccc(C(=O)O)c3)C(=O)NC2=O)c1"
observed_property = "%Inh"
test_result = 0

[[record]]
compound = "Cc1ccccc1COc1cc(-n2cnc3cc(Cl)ccc32)sc1C(N)=O"
observed_property = "%Inh"
test_result = 0

[[record]]
compound = "COc1cc(Nc2nccc(N3CCC(NC(=O)C4COc5ccccc5O4)C3)n2)cc(OC)c1OC (centres unmarked)"
observed_property = "%Inh"
test_result = 10

[[record]]
compound = "COc1ccc(-c2cc3c(C)nc(N)nc3n([C@H]3CC[C@H](O)CC3)c2=O)cn1"
observed_property = "%Inh"
test_result = 0

[[record]]
compound = "Nc1nc(N)c2nc(-c3ccccc3)[nH]c2n1"
observed_property = "%Inh"
test_result = 0

[[record]]
compound = "Nc1nc(-c2ccccc2F)c(-c2ccnc3ccccc23)s1"
observed_property = "%Inh"
test_result = 13

[[record]]
compound = "COc1ccc(-c2coc3ccc(-c4nnc(SCc5cccc(C#N)c5)o4)cc23)cc1"
observed_property = "%Inh"
test_result = 2


These entries and their values trace back to paper PMC5540273.
